Target: T1, activated human complement C1s (human, UniProt P09871 16-688)
T1 sequence: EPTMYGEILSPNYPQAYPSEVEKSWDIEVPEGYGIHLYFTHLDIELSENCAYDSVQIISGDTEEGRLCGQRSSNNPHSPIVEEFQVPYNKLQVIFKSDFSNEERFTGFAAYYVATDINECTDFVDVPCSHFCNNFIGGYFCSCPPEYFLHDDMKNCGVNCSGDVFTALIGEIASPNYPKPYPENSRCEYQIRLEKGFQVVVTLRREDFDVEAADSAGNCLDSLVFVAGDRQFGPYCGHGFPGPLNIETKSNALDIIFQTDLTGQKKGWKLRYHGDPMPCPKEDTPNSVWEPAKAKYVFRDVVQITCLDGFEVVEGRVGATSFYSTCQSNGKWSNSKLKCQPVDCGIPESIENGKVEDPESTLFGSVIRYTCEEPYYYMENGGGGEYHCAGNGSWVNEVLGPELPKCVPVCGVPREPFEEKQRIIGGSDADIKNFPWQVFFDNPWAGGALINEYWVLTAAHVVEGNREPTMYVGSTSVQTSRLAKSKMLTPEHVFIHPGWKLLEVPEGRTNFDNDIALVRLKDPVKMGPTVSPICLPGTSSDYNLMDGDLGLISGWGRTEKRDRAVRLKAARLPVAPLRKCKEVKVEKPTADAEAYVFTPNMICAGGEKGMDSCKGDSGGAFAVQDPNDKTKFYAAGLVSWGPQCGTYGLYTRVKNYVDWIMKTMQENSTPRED
Test: cell-based or functional assay
measuredParameter: IC50 of classical complement pathway inhibition (commercial CP activation assay) (nM)

>>> val("humanized TNT005 variant VH variant 4+Vk variant 1 (antibody, V domains shown, also called VH variant 4 + VL variant 1) VH: QVQLVQSGAEVKKPGASVKVSCTASGFNIKDDYIHWVRQAPGQGLEWIGRIDPADGHTKYAPKFQVKVTITADTSTSTAYMELSSLRSEDTAVYYCARYGYGREVFDYWGQGTTVTVSS VL: DIVLTQSPDSLAVSLGERATISCKASQSVDYDGDSYMNWYQQKTGQPPKILIYDASNLESGIPARFSGSGSGTDFTLTISSLEEEDFAIYYCQQSNEDPWTFGGGTKVEIK")
1.35
>>> val("humanized TNT005 variant VH variant 5+Vk variant 2 (antibody, V domains shown, also called VH variant 5 + VL variant 2) VH: QVQLVQSGAEVKKPGASVKVSCAASGFNIKDDYIHWVRQAPGQGLEWIGRIDPADGHTKYAPKFQVKVTITADTSTSTAYMELSSLRSEDTAVYYCARYGYGREVFDYWGQGTTVTVSS VL: DIVLTQSPDSLAVSLGERATISCKASQSVDYDGDSYMNWYQQKPGQPPKILIYDASNLESGIPARFSGSGSGTDFTLTISSLEPEDFAIYYCQQSNEDPWTFGGGTKVEIK")
1.31
>>> val("humanized TNT005 variant VH variant 1+Vk variant 5 (antibody, V domains shown, also called VH variant 1 + VL variant 5) VH: EVQLVQSGAELKKPGASVKLSCTASGFNIKDDYIHWVKQAPGQGLEWIGRIDPADGHTKYAPKFQVKATITADTSTNTAYLQLSSLTSEDTAVYYCARYGYGREVFDYWGQGTTVTVSS VL: DIVLTQSPDSLAVSLGERATISCKASQSVDYDGDSYMNWYQQKPGQPPKLLIYDASNLESGIPARFSGSGSGTDFTLTISSLEPEDFAVYYCQQSNEDPWTFGGGTKVEIK")
1.26
